subjectOfTest: T1, recombinant extracellular domain (ECD) of human TF, amino acid 1-219 of the mature chain, C-terminal His6-tag (human, UniProt P13726 33-251)
T1 construct: expressed in a mammalian system; used for ELISA and Biacore; biotinylated by NHS-ester for the Fab ELISA; also called His6-TF-ECD1-219; HumanTF1-219
experimentSummary: Biacore
observable: Kd (nM)
# value in nM; strip the unit string

Data request: GET /values?readout=Kd&item= M1647 (antibody, V domains shown, complete MAb; FR4 is its own entry; also called H171/L320) VH: EVQLVQSGAEVKKPGESLRISCKGSGYTFAPYWIEWVRQMPGKGLEWMGDILPGTGFTTYSPSFQGHVTISADKSISTAYLQWSSLKASDTAMYYCARSGYYGNSGFAYWGQGTLVTVSS VL: DIVMTQTPLSLPVTPGEPASISCKSSQSLLYSGNQRNYLTWYLQKPGQSPQLLIYWASTRSSGVPDRFSGSGSGTDFTLKISRVEAEDVGVYYCQNDDTYPMTFGQGTKLEIK
Data returned: 0.1
